IC50 listing for selected compounds.
target-entity: P. pyralis FLuc (Photinus pyralis, UniProt P08659)
Sequence (P08659 whole entry): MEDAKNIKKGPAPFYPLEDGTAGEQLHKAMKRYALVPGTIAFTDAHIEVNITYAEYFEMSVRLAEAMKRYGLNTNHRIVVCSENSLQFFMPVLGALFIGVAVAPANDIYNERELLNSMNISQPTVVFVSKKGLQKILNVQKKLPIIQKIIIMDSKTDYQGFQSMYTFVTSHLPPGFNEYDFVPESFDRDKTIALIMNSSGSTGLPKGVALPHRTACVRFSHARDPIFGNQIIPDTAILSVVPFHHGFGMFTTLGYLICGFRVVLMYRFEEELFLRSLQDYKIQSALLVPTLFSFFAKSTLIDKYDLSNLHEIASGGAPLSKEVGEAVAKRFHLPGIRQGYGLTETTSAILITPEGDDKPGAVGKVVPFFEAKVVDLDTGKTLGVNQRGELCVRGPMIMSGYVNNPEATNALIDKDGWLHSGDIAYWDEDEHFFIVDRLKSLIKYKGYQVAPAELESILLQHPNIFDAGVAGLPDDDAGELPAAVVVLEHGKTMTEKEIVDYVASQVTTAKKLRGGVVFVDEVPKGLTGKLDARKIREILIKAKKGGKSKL
protocol-text: FLuc enzymatic luminescence assay, P. pyralis FLuc
Format: biochemical
condition-set: FLuc enzymatic assay; Clade S follow-up; read-out: IC50 or SDR50 (mM) FLuc E
quantity-measured: IC50 (mM)

[
  {
    "compound": "O=C(NCCC1=CCCCC1)C1CCN(C(=O)c2ncn3c2COC(c2ccc(Cl)cc2)C3)CC1 (stereo not shown)",
    "target-entity": "P. pyralis FLuc (Photinus pyralis, UniProt P08659)",
    "observed-result": 0.0124
  },
  {
    "compound": "O=C(Nc1ccccc1)C1CCN(C(=O)c2ncn3c2COC(c2ccccc2)C3)CC1 (stereo not shown)",
    "target-entity": "P. pyralis FLuc (Photinus pyralis, UniProt P08659)",
    "observed-result": 0.0014
  },
  {
    "compound": "O=C(Nc1ccc(Cl)cc1)C1CCN(C(=O)c2ncn3c2COC(c2ccccc2)C3)CC1 (stereo not shown)",
    "target-entity": "P. pyralis FLuc (Photinus pyralis, UniProt P08659)",
    "observed-result": 0.00157
  },
  {
    "compound": "O=C(Nc1cccc(F)c1)C1CCN(C(=O)c2ncn3c2COC(c2ccccc2)C3)CC1 (stereo not shown)",
    "target-entity": "P. pyralis FLuc (Photinus pyralis, UniProt P08659)",
    "observed-result": 0.00062
  }
]

---

Measured IC50 of individual entries
target-entity: FLuc-C-HiBiT (Photinus pyralis, UniProt P08659)
Construct: firefly luciferase with C-terminal HiBiT tag, E. coli expressed
protocol-text: biochemical
condition-set: enzyme activity, 10 uM ATP; read-out: IC50 or SDR50 (mM) / FLuc E

[
  {
    "molecule": "COc1cccc(CN2CCNc3cc(Nc4ccccc4)ncc3C2)c1 [NCGC00411172-01]",
    "readout-qualifier": "=",
    "IC50 (µM)": 18
  },
  {
    "molecule": "CC(C)NC(=O)C1CCN(C(=O)c2ncn3c2COC(c2ccccc2)C3)CC1 (centres unmarked) [NCGC00449767-01]",
    "readout-qualifier": "=",
    "IC50 (µM)": 3.51
  },
  {
    "molecule": "COc1cccc(C(=O)Nc2ccc3nc(SCC(=O)N4CCOCC4)sc3c2)c1 [NCGC00118677-01]",
    "readout-qualifier": "=",
    "IC50 (µM)": 9.89
  },
  {
    "molecule": "COc1cccc(CN2CCc3nc(Nc4ccc5c(c4)OCCO5)ncc3C2)c1 [NCGC00131180-01]",
    "readout-qualifier": "=",
    "IC50 (µM)": 11.1
  },
  {
    "molecule": "COc1ccc(NC(=O)c2cc3c(=O)[nH]c(C)cn3n2)cc1OC [NCGC00453925-01]",
    "readout-qualifier": "=",
    "IC50 (µM)": 9.89
  },
  {
    "molecule": "O=C(c1cc(-c2ccccc2O)on1)N1CCCCC1 [NCGC00105578-01]",
    "readout-qualifier": "=",
    "IC50 (µM)": 9.89
  },
  {
    "molecule": "O=C(O)CCn1ncc2cc(OCc3ccc(-c4cccc(CO)c4)cc3)ccc21 [NCGC00418123-01]",
    "readout-qualifier": "=",
    "IC50 (µM)": 16.1
  },
  {
    "molecule": "O=C(O)c1cccc(-c2noc(-c3ccccc3C(F)(F)F)n2)c1 [NCGC00168768-02]",
    "readout-qualifier": "=",
    "IC50 (µM)": 0.0624
  },
  {
    "molecule": "CC(C)(C)c1ccc(C(=O)Nc2ccc(C(O)[C@H]3COCC(=O)N3Cc3ccccc3)cc2)cc1 (some centres unmarked) [NCGC00394950-01]",
    "readout-qualifier": ">",
    "IC50 (µM)": 30
  },
  {
    "molecule": "O=C(Nc1ccc2c(c1)OCCO2)N1CCC2(CC1)CC(N1CCCC1)CCO2 (centres unmarked) [NCGC00453772-01]",
    "readout-qualifier": "=",
    "IC50 (µM)": 11.1
  },
  {
    "molecule": "O=C(Nc1ccc2c(c1)OCCO2)c1cccn(Cc2ccccc2)c1=O [NCGC00137349-01]",
    "readout-qualifier": "=",
    "IC50 (µM)": 11.1
  },
  {
    "molecule": "Cc1ccc(F)cc1-c1ccc(COc2ccc3c(cnn3CCC(=O)O)c2)cc1 [NCGC00418121-01]",
    "readout-qualifier": "=",
    "IC50 (µM)": 18
  },
  {
    "molecule": "COc1ccc(-c2cc(N3CCCC(NC(=O)c4cc(OC)cc(OC)c4)C3)[nH]n2)cc1 (centres unmarked) [NCGC00437618-01]",
    "readout-qualifier": "=",
    "IC50 (µM)": 9.89
  },
  {
    "molecule": "Brc1ccc(-c2cn3cc(Cc4ccccc4)sc3n2)cc1 [NCGC00102136-01]",
    "readout-qualifier": "=",
    "IC50 (µM)": 0.881
  },
  {
    "molecule": "CCOc1cccc(-c2nc(C3CCOC3)no2)c1 (centres unmarked) [NCGC00445015-01]",
    "readout-qualifier": ">",
    "IC50 (µM)": 30
  },
  {
    "molecule": "Cc1ccc(Cl)cc1-n1nnc(-c2nsc(NC(=O)c3ccccc3Cl)n2)c1C [NCGC00105211-01]",
    "readout-qualifier": ">",
    "IC50 (µM)": 30
  },
  {
    "molecule": "Cc1nc2cc(-c3cccc(F)c3)nn2c(C)c1CCC(=O)NC1CCCCC1 [NCGC00110095-01]",
    "readout-qualifier": "=",
    "IC50 (µM)": 8.81
  }
]
